Test: in vitro
Format: in vitro ADME, rat
Settings: rat, microsomes; RLM (male Sprague-Dawley) 0.50 mg/mL, NADPH 1 mM, 1 μM compound, pH 7.4, 37° C., 60 min; read-out: Intrinsic clearance (Clint)
From the text: RLM Stability Pooled RLM from male Sprague-Dawley rats (Xenotech R1000) were used.
Overview of recorded microsomal CLint for various compounds
Express the result in µL/min/mg but write the number alone.

COc1cccc(CN2C[C@H](C(=O)N3[C@@H](C)C[C@@H]3C)C=C3c4cccc5[nH]cc(c45)C[C@H]32)c1	352
CCN(CC)C(=O)[C@@H]1C=C2c3cccc4[nH]cc(c34)C[C@H]2N(Cc2ccc(F)c(OC)c2)C1	152
CCN(CC)C(=O)[C@@H]1C=C2c3cccc4[nH]cc(c34)C[C@H]2N(CC2CCCCC2)C1	244
CCN(CC)C(=O)[C@@H]1C=C2c3cccc4[nH]cc(c34)C[C@H]2N(Cc2ncco2)C1	71.7
CCN(CC)C(=O)[C@@H]1C=C2c3cccc4[nH]cc(c34)C[C@H]2N(Cc2ccc3ccccc3c2)C1	167

microsomal CLint in this record for CCN(CC)C(=O)[C@@H]1C=C2c3cccc4[nH]cc(c34)C[C@H]2N(Cc2cccc(F)c2)C1 : 302

microsomal CLint in this record for CCN(CC)C(=O)[C@@H]1C=C2c3cccc4[nH]cc(c34)C[C@H]2N(Cc2cnco2)C1 : 56.3

microsomal CLint in this record for CCN(CC)C(=O)[C@@H]1C=C2c3cccc4[nH]cc(c34)C[C@H]2N(Cc2cccc3ccccc23)C1 : 525

microsomal CLint in this record for O=C([C@@H]1C=C2c3cccc4[nH]cc(c34)C[C@H]2N(Cc2ccccc2)C1)N1CCCC1 : 101

Origin of the recorded values: patent US20260317319A1
